# System: OVCAR-5 ovarian
# assay info: NCI tumour cell line growth inhibition, 48 h
reported property: TGI (µM)
All answers are understood in µM, so give the number only.

Recorded TGI, per entry:
1. O=[N+]([O-])c1ccc(C2=Nc3ccccc3S(=O)C(c3ccccc3)C2)cc1 (centres undefined)    92.8
2. O=[N+]([O-])c1ccc(SN=S=NSc2cccc(SN=S=NSc3ccc([N+](=O)[O-])cc3)c2)cc1    74.3
3. CCCCCCCC/C=C1\CCC(CN(C)C)C1=O (centres undefined)    35.5

Let us examine a further case.
Query: Requested field: TGI. Item: COc1cc(-c2cc(/C=C/C(=O)c3ccc(F)c(F)c3)[nH]n2)cc(OC)c1OC
Result: 33.8

====

TGI listing for selected molecules.
# Test system: IGROV1 ovarian
# assay info: NCI tumour cell line growth inhibition, 48 h

Observe how each entry below is paired with its result.
1. O=C1NC(=NCCc2ccc(F)cc2)S/C1=C\c1ccc2ncccc2c1    > 25 µM
2. O=C(NN1C(=O)C(Cl)C1c1ccccc1O)c1ccccc1O (stereo unspecified)    > 100 µM
3. CO/C(N)=C(\C#N)N=Cc1ccc2ccccc2c1    > 100 µM

Query: Fill in: TGI of FC(F)(F)c1ccccc1C1SCC2=Nc3ccccc3CN21 (stereo unspecified) is ___
Result: 29.7 µM

Query: Report TGI for CCCCCCCC/C=C1\CCC(CN(C)C)C1=O (stereo unspecified) please.
Result: 20.8 µM

Query: Please give the measured TGI for this molecule: CN=C(N)c1ccc(N=C(N)c2ccc(-c3ccc(C(N)=Nc4ccc(C(N)=NC)cc4)cc3)cc2)cc1
Result: > 100 µM

Query: Fill blank: measured TGI of the molecule CCOC(=O)c1c(-c2ccccc2)[n+](=O)c2cc(Cl)c(Cl)cc2n1[O-] is ____.
Result: > 100 µM

Query: Recorded TGI of CS(=O)(=O)N1CC(CCl)c2ccc(NO)cc21 (stereo unspecified) , please.
Result: 29 µM

Query: Would you mind telling me what TGI value was observed for NS(=O)(=O)c1ccc(Nc2cc(-c3ccc(O)c(F)c3)[nH]n2)cc1 ?
Result: > 25 µM

Query: Consider the molecule CC1=NN(c2nc(N)nc(NS(=O)(=O)c3cc(C)c(Cl)cc3S)n2)C(C)(C)C1 and give its measured TGI.
Result: > 10 µM

Query: For the molecule CC(C)C1CNC(=O)C2(C=NC(C(C)C)CNC(=O)C3(C=N1)CCCO3)CCCO2 (stereo unspecified) , what TGI is on record?
Result: > 10 µM

====

Listing: TGI of selected molecules
# System: CCRF-CEM leukemia
# assay info: NCI tumour cell line growth inhibition, 48 h

Record excerpt, results attached:
1) Cc1ccc(C(=O)CC2(O)C(=O)Nc3c(C)cc(Cl)cc32)cc1 (configuration not stated)    > 100 µM
2) O=C1NC2NC3NC(=O)NC3NC2N1 (configuration not stated)    > 100 µM
3) C/C(=N\O)c1ccc2ccc3ccccc3c2c1    > 100 µM
4) CN(C)c1ccc(/C=C\c2ccnc3ccccc23)cc1    > 100 µM
5) C[C@@H](CC(O)C(O)C(C)(C)O)C1CCC23CC12CCC1[C@@]2(C)CCC(O)C(C)(C)C2CC(OC2OC(CO)C(O)C(O)C2O)[C@]13C (some centres not stated)    > 10 µM

Query: GET /values?readout=TGI&item= CCN1CCN(c2nc(C)cc(N(CCCNc3ccnc4cc(Cl)ccc34)Cc3ccc4c(c3)OCO4)n2)CC1
Result: 7.14 µM

Query: Data request, read-out TGI, for O=C(CS(=O)(=O)c1nc2ccccc2nc1-c1ccccc1)Nc1ccc(F)cc1
Result: 18.8 µM

Query: Param item = C=C1C[C@H]2C=Nc3cc(OCCCOc4cc5c(cc4OC)C(=O)N4CC(=C)C[C@H]4C=N5)c(OC)cc3C(=O)N2C1 ; retrieve measured TGI.
Result: 0.0144 µM

Query: Sample O=C1NC(=S)S/C1=C\c1cn(-c2ccccc2)nc1-c1ccccc1 — what was its TGI?
Result: 69.8 µM

Query: Which TGI is listed for C/C(=C/C(=O)Nc1ccccc1)Nc1onc(C)c1C ?
Result: > 100 µM

Query: Name the recorded TGI for O=C(Nc1ccc(Oc2ccc3nc(NC(=O)c4ccco4)[nH]c3c2)cc1)Nc1cc(C(F)(F)F)ccc1F .
Result: > 25 µM

Query: Quick one: TGI of O=C(O)C1=C/C(=C(/c2ccccc2)c2cc(C(=O)O)c(O)c3ccccc23)c2ccccc2C1=O ?
Result: > 100 µM
